- TARGET OR SYSTEM: T1, recombinant extracellular domain (ECD) of human TF, amino acid 1-219 of the mature chain, C-terminal His6-tag (human, UniProt P13726 33-251)
- T1 construct: expressed in a mammalian system; used for ELISA and Biacore; biotinylated by NHS-ester for the Fab ELISA; also called His6-TF-ECD1-219; HumanTF1-219
- PROTOCOL DESCRIPTION: Biacore
MEASURED PARAMETER: kon (M⁻¹ s⁻¹)
Please respond with the number in M⁻¹ s⁻¹ and leave the unit unwritten.

Some binders with known kon results, for comparison:
BINDER	kon [M⁻¹ s⁻¹]
M51 (antibody, V domains shown, complete MAb; FR4 is its own entry; also called H21/L2) VH: EVQLVQSGAEVKKPGATVKISCKVSGYTFITYWIEWVQQAPGKGLEWMGDILPGSGSTNYNENFKGRVTITADTSTDTAYMELSSLRSEDTAVYYCATSGYYGNSGFAYWGQGTLVTVSS VL: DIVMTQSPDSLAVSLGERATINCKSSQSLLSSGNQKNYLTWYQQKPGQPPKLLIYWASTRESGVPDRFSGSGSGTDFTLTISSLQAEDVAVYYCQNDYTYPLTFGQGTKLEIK	81100
M1589 (antibody, V domains shown, complete MAb; FR4 is its own entry; also called H187/L3) VH: EVQLVQSGAEVKKPGESLRISCKGSGYTFGPHWIEWVRQMPGKGLEWMGDILPGTGYTNYSPSFQGHVTISADKSISTAYLQWSSLKASDTAMYYCARSGYYGNSGFAYWGQGTLVTVSS VL: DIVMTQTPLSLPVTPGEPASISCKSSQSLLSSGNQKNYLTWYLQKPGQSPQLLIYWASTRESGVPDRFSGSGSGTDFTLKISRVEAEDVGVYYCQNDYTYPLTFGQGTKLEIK	174000

Fill in: kon of M1595 (antibody, V domains shown, complete MAb; FR4 is its own entry; also called H160/L3) VH: EVQLVQSGAEVKKPGESLRISCKGSGYTFYPYWIEWVRQMPGKGLEWMGDILPGTGFTNYSPSFQGHVTISADKSISTAYLQWSSLKASDTAMYYCARSGYYGNSGFAYWGQGTLVTVSS VL: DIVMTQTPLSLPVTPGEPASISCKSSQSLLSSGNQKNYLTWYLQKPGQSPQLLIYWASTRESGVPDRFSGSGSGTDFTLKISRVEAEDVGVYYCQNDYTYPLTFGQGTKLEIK is ___
176000

Which value of kon has been reported for M42 (antibody, V domains shown, complete MAb; FR4 is its own entry; also called H19/L7) VH: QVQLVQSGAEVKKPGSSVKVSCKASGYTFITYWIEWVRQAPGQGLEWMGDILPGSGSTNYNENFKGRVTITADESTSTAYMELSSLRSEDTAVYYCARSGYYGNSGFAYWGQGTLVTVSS VL: DIVMTQTPLSSPVTLGQPASISCKSSQSLLSSGNQKNYLTWLQQRPGQPPRLLIYWASTRESGVPDRFSGSGAGTDFTLKISRVEAEDVGVYYCQNDYTYPLTFGQGTKLEIK in the records?
80400
